- studySystem: human CDH6 with EC3 removed, on HEK293T cells (HEK293T-hCDH6-EC3 deletion) (human) (UniProt P55285)
- methodNotes: FACS, HEK293T-hCDH6-EC3 deletion cells
measurementLabel: Max MFI (MFI)
Kindly answer with a numeric value in MFI, unit omitted.

{"binder": "CHI-CDH6-3 (antibody, human IgG1, kappa, V domains shown) VH: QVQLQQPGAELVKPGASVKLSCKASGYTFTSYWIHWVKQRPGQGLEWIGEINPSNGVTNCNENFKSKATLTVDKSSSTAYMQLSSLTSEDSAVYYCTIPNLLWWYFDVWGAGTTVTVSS VL: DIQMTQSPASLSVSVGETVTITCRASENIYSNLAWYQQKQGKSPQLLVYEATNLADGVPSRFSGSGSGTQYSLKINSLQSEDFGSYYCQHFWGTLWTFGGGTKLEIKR", "measurementLabel": "Max MFI", "reportedValue": 689}

Now for a further binder.
Which measured Max MFI value corresponds to NOV0712 (antibody, human IgG1, kappa, V domains shown) VH: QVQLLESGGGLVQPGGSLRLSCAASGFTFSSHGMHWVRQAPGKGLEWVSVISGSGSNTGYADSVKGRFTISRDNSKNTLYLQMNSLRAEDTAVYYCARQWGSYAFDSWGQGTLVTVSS VL: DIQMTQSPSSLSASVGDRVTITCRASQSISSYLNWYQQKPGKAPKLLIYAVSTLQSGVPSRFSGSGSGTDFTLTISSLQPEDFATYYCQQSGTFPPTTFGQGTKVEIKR ?
16300
